Assay: Cell Viability - LYMP2-014 (AID 983);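 further: cells exposed to compound for 24 h at 37 °C; nearly all actives have a fitted effect of over 50% in size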; further: potency means the concentration at half of the fitted maximal effect
Assay Setup: LYMP2-014 lymphoblastoid cells, viability qHTS; series mostly up to 92.2 µM
Inconclusive results are not listed. Active and inactive are the calls of the source. The call rests on the fitted dose curve; in most records, active means well fitted cell-killing curve with a large enough effect; inconclusive means small, poorly fitted or top-dose-only effect; inactive means flat fitted curve, though single readings scatter.
Readout Name: Potency

N=C1N=C(N)c2cc3ccccc3cc21 39.8 µM (active)
CN(C)c1ccc(N=NS(=O)(=O)O)cc1 inactive
CCCCCCCCCCCCCCCCCC(=O)O inactive
NCCO inactive
CN(C)c1ccc(C(=C2C=CC(=[N+](C)C)C=C2)c2ccccc2)cc1 0.251 µM (active)
Nc1nc2ccc([N+](=O)[O-])cc2s1 inactive
O=c1cc(-c2ccccc2)oc2ccccc12 inactive
Nc1ccc([N+](=O)[O-])cc1O inactive
c1ccc2sc(SSc3nc4ccccc4s3)nc2c1 inactive

###

System Tested: ATPase family AAA domain-containing protein 5 (Homo sapiens)
Assay: Validation screen for small molecules that inhibit ELG1-dependent DNA repair in human embryonic kidney (HEK293T) cells expressing luciferase-tagged ELG1 (AID 493107); further: nearly all actives have a fitted effect of over 70% in size; further: potency means the concentration at half of the fitted maximal effect
Assay Setup: HEK293T ELG1-luciferase level, luminescence, 5-fluorouridine co-treatment, 16 h; series mostly up to 46.1 µM
Records with an inconclusive call do not appear. The source made the active and inactive calls. The call rests on the fitted dose curve; in most records, active means well fitted inhibition curve with a large enough effect; inconclusive means small, poorly fitted or top-dose-only effect, or effect the other way; inactive means flat fitted curve, though single readings scatter.

Compound	Potency
Clc1ccc(N2CCN(Cc3c[nH]c4ncccc34)CC2)cc1	inactive
CC1(C)CCC=[N+]1[O-]	inactive
C=C[C@@H]1CN2CC[C@@H]1C[C@H]2[C@H](O)c1ccnc2ccc(OC)cc12	inactive
OC[C@H]1O[C@@H](n2cnc3c(Nc4ccccc4)ncnc32)[C@H](O)[C@@H]1O	inactive
O=C1O/C(=C/Br)CCC1c1cccc2ccccc12 (stereo not drawn)	18.3 µM (active)
Oc1ccccc1O	inactive
CCNC(=O)[C@H]1O[C@@H](n2cnc3c(N)nc(NCCc4ccc(CCC(=O)O)cc4)nc32)[C@H](O)[C@@H]1O	inactive
Nc1ncnc2c1c(I)cn2[C@@H]1C[C@H](N)[C@@H](O)[C@H]1O	5.17 µM (active)
CC(C)NC[C@@H](O)c1ccc(O)c(O)c1	inactive
O=Nc1ccc2oc(=O)ccc2c1	inactive
NCCSSCCN	inactive
Nc1nc(Nc2ccccc2)nc2c1ncn2[C@@H]1O[C@H](CO)[C@@H](O)[C@H]1O	5.8 µM (active)
COc1ccc2c(c1)CCC1C2CC[C@@]2(C)C1CC[C@@H]2NCCCCCCN1C(=O)CCC1=O (stereo partly drawn)	25.9 µM (active)
CC(COc1ccc(/C=C/c2ccccc2)cc1)[N+](C)(C)C (stereo not drawn)	inactive
CCc1c(C(=O)NCCc2ccc(N3CCCCC3)cc2)[nH]c2ccc(Cl)cc12	inactive
C=CC(N)CCC(=O)O (stereo not drawn)	inactive
CC(C)(C=O)Cc1cc(C(C)(C)C)c(O)c(C(C)(C)C)c1	inactive
CC(C)Cc1ccc([C@H](C)C(=O)O)cc1	inactive
C[N+](C)(C)CCOP(=O)(O)OP(=O)([O-])OC[C@H]1O[C@@H](n2ccc(N)nc2=O)[C@H](O)[C@@H]1O	inactive
CN(C)CCCO[C@@H]1[C@H]2OC(C)(C)O[C@H]2O[C@@H]1[C@H](O)CO	inactive
CN1CCc2cc(O)c(O)cc2C(c2ccccc2)C1 (stereo not drawn)	inactive
O=[N+]([O-])c1ccc(CSc2ncnc3c2ncn3[C@@H]2O[C@H](CO)[C@@H](O)[C@H]2O)cc1	0.0206 µM (active)
CNc1ncnc2c1ncn2[C@@H]1O[C@H](CO)[C@@H](O)[C@H]1O	inactive

###

System: Zika virus NS2B-NS3 protease (linked construct)
Assay: Primary screen NINDS Rhodamine qHTS for Zika virus inhibitors (AID 1347160); further: nearly all actives have a fitted effect of over 55% in size
Assay Setup: purified NS2B-NS3 protease, Rhodamine110 substrate fluorescence; series mostly up to 57.1 µM
Results filed as inconclusive are left out. Calls of active or inactive are those of the source. Calls come from the whole dose curve; as a rule, active = well fitted inhibition curve with a large enough effect; inconclusive = small, poorly fitted or top-dose-only effect; inactive = no such curve, though single readings can be large or run the other way.
Outcome codes: active, inactive

Compound	Class Name
CC1(C)[C@@H](O)CC[C@]2(C)[C@H]3C(=O)C=C4[C@@H]5C[C@@](C)(C(=O)O)CC[C@]5(C)CC[C@@]4(C)[C@]3(C)CC[C@@H]12	active
O=C(Nc1ccc2c(c1)CCN(Cc1ncn[nH]1)C2)c1ccccc1-c1ccc(C(F)(F)F)cc1	inactive
CC(=O)SCC(CC(=O)c1ccc(C)cc1)C(=O)O (centres undefined)	inactive
Cc1ccc2c(n1)Oc1ccc(C(C)C(=O)OCC(=O)N(C)C)cc1C2 (centres undefined)	inactive
COC(=O)[C@H]1[C@H]2C[C@@H]3c4[nH]c5cc(OC)ccc5c4CCN3C[C@H]2C[C@@H](OC(=O)/C=C/c2cc(OC)c(OC)c(OC)c2)[C@@H]1OC	inactive
CC(=O)O[C@H]1C[C@@]2(C)[C@@H](C[C@@H](O)[C@H]3[C@@]4(C)CC[C@@H](O)[C@@H](C)[C@@H]4CC[C@@]32C)/C1=C(\CCC=C(C)C)C(=O)O	inactive
CN(CCCOc1ccc(Cc2ccccc2)cc1)CCC(=O)O	inactive
CN1[C@@H]2CC[C@H]1CC(OC(c1ccccc1)c1ccccc1)C2 (some centres undefined)	inactive
CS(=O)(=O)c1ccc(-n2nc(C(F)(F)F)cc2-c2ccc(F)cc2)cc1	inactive

###

System Tested: Cytochrome P450 2D6 (Homo sapiens)
Assay: Cytochrome P450 family 2 subfamily D member 6 (CYP2D6) small molecule antagonists: luciferase biochemical (cell-free) qHTS assay (AID 1645840); further: nearly all actives have a fitted effect of over 55% in size
Assay Setup: P450-Glo CYP2D6 enzyme, luciferin luminescence, 1 h; series mostly up to 57.4 µM
Results filed as inconclusive are left out. Active and inactive are the calls of the source. Calls come from the whole dose curve; as a rule, active = well fitted inhibition curve with a large enough effect in the repeat runs; inconclusive = weak or mixed curves; inactive = flat fitted curve, though single readings scatter.
Outcome codes: active, inactive

Molecule	Class Name
N=C(N)N	inactive
C=CCCCCCCCCC(=O)O	inactive
COC(=O)Nc1nc2ccc(C(=O)C3CC3)cc2[nH]1	inactive
NC(=O)C(c1ccccc1)(c1ccccc1)[C@@H]1CCN(CCc2ccc3c(c2)CCO3)C1	active
C#C[C@]1(O)CC[C@H]2[C@@H]3CCc4cc(O)ccc4[C@H]3CC[C@@]21C	inactive
O=C(O)[C@H](CC(=O)N1C[C@H]2CCCC[C@H]2C1)Cc1ccccc1	inactive
CO[C@@]1(NC(=O)Cc2cccs2)C(=O)N2C(C(=O)O)=C(COC(N)=O)CS[C@@H]21	inactive
O=C(CCN1CCN(CCO)CC1)N1c2ccccc2Sc2ccc(C(F)(F)F)cc21	inactive
O=C(O)Cc1ccc2c(c1)C(=O)c1ccccc1CO2	inactive
Nc1ccc(O)c(C(=O)O)c1	inactive
O=c1[nH]c2ccccc2n1CCCN1CCN(C(c2ccccc2)c2ccccc2)CC1	active
c1ccc2sc(SN3CCOCC3)nc2c1	inactive
Nc1ccc(O)c([N+](=O)[O-])c1	active
Cc1[nH]cnc1CN1CCc2c(c3ccccc3n2C)C1=O	active
Cc1nc2ccccc2n1Cc1ccc(Cl)cc1	active
COc1cccc2c1C(=O)c1c(O)c3c(c(O)c1C2=O)C[C@@](O)(C(=O)CO)C[C@@H]3O[C@H]1C[C@H](N)[C@H](O[C@@H]2CCCCO2)[C@H](C)O1	inactive
CC(C(=O)O)c1ccc(C(=O)c2cccs2)cc1 (stereo not drawn)	inactive
c1ccc(CCNc2nc(-c3ccccc3)cs2)cc1	active
CC(C(=O)O)c1ccc2c(c1)[nH]c1ccc(Cl)cc12 (stereo not drawn)	inactive
CCCCCCCCCCCC(=O)[O][Sn]([CH2]CCC)([CH2]CCC)[O]C(=O)CCCCCCCCCCC	inactive
CCCC(=O)OC[C@@H](OC(=O)CCC)[C@@H](OC(=O)CCC)[C@H](Cn1c2nc(=O)[nH]c(=O)c-2nc2cc(C)c(C)cc21)OC(=O)CCC	active
O=C(Nc1ccc2c(c1)CCN(Cc1ncn[nH]1)C2)c1ccccc1-c1ccc(C(F)(F)F)cc1	active
Oc1c(Br)cc(Br)c2cccnc12	inactive

###

System Tested: Thioredoxin reductase 1, cytoplasmic (Rattus norvegicus) (UniProt O89049)
Sequence (O89049 whole entry, looked up): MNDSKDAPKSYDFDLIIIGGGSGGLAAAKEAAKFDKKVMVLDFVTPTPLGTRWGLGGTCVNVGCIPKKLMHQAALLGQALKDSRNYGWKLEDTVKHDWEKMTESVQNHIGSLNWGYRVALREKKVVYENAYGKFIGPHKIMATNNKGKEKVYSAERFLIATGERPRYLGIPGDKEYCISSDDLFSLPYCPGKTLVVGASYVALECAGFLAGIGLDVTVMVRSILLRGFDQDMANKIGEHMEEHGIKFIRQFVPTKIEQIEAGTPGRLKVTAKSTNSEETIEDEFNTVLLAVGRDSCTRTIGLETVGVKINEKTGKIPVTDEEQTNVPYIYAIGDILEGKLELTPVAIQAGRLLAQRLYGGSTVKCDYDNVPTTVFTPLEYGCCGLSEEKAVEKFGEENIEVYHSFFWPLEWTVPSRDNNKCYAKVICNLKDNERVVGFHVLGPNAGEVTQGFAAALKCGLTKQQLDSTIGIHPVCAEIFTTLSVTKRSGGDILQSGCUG
Assay: qHTS Assay for Inhibitors of Mammalian Selenoprotein Thioredoxin Reductase 1 (TrxR1) (AID 488773); further: nearly all actives have a fitted effect of over 40% in size
Assay Setup: purified TrxR1 enzyme activity; inhibition; series mostly up to 57.1 µM
Records with an inconclusive call do not appear. Activity calls are given as the source filed them. Calls follow the shape of the dose curve; as a rule, active = well fitted inhibition curve with a large enough effect; inconclusive = small, poorly fitted or top-dose-only effect; inactive = no such curve, though single readings can be large or run the other way.
Outcome codes: Y (active), N (inactive)

Compound	Class Name
O=C(O)CC[C@@H](C(=O)O)N1C(=O)c2ccccc2C1=O	N
O=C(CCCCCN1CCN(c2ccccc2-c2ccccc2)CC1)NC1CCCc2ccccc21 (stereo unspecified)	N
CSc1nc(N)c2ncn([C@@H]3O[C@H](COP(=O)(O)OP(=O)(O)OP(=O)(O)O)[C@@H](O)[C@H]3O)c2n1	N
CN1CCc2cc(O)c(O)cc2C(c2ccccc2)C1 (stereo unspecified)	N
O=C(O)CNC(=O)C(CS)Cc1ccccc1 (stereo unspecified)	N
CC1OC1P(=O)(O)O (stereo unspecified)	N
CNCC[C@H](Oc1ccc(C(F)(F)F)cc1)c1ccccc1	N
CC(C)Cc1ccc([C@H](C)C(=O)O)cc1	N
O=[N+]([O-])c1ccc2c(c1)S(=O)(=O)C=C2	Y
O=C(O)c1cc([N+](=O)[O-])ccc1NCCCc1ccccc1	N
COc1ccc(/C=C/C(=O)Nc2ccccc2C(=O)O)cc1OC	N
O=c1[nH]c2cc(Cl)c(Cl)cc2[nH]c1=O	N
OCC1O[C@H](O)C(Cl)C(O)C1O (stereo partly specified)	N
Nc1nc(Cl)nc2c1ncn2[C@@H]1O[C@H](CO)[C@@H](O)[C@H]1O	N
C[N+]1(C)C2CC(OC(=O)[C@H](CO)c3ccccc3)CC1C1OC12 (stereo partly specified)	N
O=c1[nH]c2cc(C(F)(F)F)ccc2n1-c1cc(C(F)(F)F)ccc1O	N
N#C/C(=C\c1ccc(O)c(O)c1)C(=O)NCCCc1ccccc1	N
CC1CN(S(=O)(=O)c2cccc3cnccc23)CCN1 (stereo unspecified)	N
CC[C@@H](C)[C@H]1O[C@]2(CC[C@H]1C)C[C@@H]1C[C@@H](CC=C(C)[C@@H](O[C@H]3C[C@H](OC)[C@@H](O[C@H]4C[C@H](OC)[C@@H](O)[C@H](C)O4)[C@H](C)O3)[C@@H](C)C=CC=C3CO[C@@H]4[C@H](O)C(C)=C[C@@H](C(=O)O1)[C@]34O)O2	N
O=C1NC(O)=NC1(c1ccccc1)c1ccccc1	N
COc1ccccc1N1CCN(CCCCNS(=O)(=O)c2cccc3c(N(C)C)cccc23)CC1	N
